molecular target: T1, PSMA Fab; assay: phage ELISA; biotinylated PSMA Fab on neutravidin plate, clonal phage supernatant, anti-M13 HRP; wells pre-incubated with PSMA antigen as competitor
T1 construct: Biotinylated and captured on neutravidin coated plates in the phage ELISA; also called 006 PSMA Fab; Anti-PSMA Fab
Where no end group is shown, it is not given here.
MEASURED_ENDPOINT: phage binding ELISA signal
Output: the number by itself.

In the examples that follow, each entry is paired with its recorded phage binding ELISA signal.
- BINDER: "LWMSCIPPWMCANV (cysteine pairing not given here; also: displayed as fusion to phage pIII, Peptide-180 library clone, tested as clonal phage (peptide fused to pIII)) [Phage-2426]"
  VALUE_REPORTED: 0.137
- BINDER: "EVKWCIPNWMCAAS (cysteine pairing not given here; also: displayed as fusion to phage pIII, Peptide-180 library clone, tested as clonal phage (peptide fused to pIII)) [Phage-2432]"
  VALUE_REPORTED: 0.077

I'd like to know its phage binding ELISA signal. The binder in question is GEKWCIPEWMCVTT (Peptide-180 library clone, tested as clonal phage (peptide fused to pIII)) [Phage-2429]
0.0637

And what about the binder EFKWCIPKWMCMVD (Peptide-180 library clone, tested as clonal phage (peptide fused to pIII)) [Phage-2421] ?
0.0948

Next entry: LVNWCTPPWMCWHD (Peptide-180 library clone, tested as clonal phage (peptide fused to pIII)) [Phage-2424]
0.0827

Check GINWCTPSWMCTGF (Peptide-180 library clone, tested as clonal phage (peptide fused to pIII)) [Phage-2435] too.
0.0711
